// data source = the array DNA melting data of Ke et al. (doi:10.1101/2024.01.08.574731)

Assay: folding enthalpy; higher = less favourable; fluorescence melt of hairpins on a sequencing array, two-state fit
Conditions: sodium 0.088 M
measured_property: folding enthalpy (kcal/mol)
A number alone suffices; assume kcal/mol.

Q: Would you mind telling me what folding enthalpy value was observed for GGACTCGGAAACGAGTTC (.(((((....))))).) ?
Result: -38.3

Q: What do you have for GATCGGGTTACCGATC ((((((....)))))) ?
Result: -35.8

Q: What do you have for GCCACGGGAAACCACGGC (((..((....))..))) ?
Result: -34.4

Q: What do you have for GAAGGCGAAAGCCGATTC ((((((....)))..))) ?
Result: -14.7

Q: What do you have for GTTATGGCGAAAGCCAAC (((..(((....)))))) ?
Result: -8.21

Q: What do you have for GCACGCCGAAAGGCATGC (((.(((....))).))) ?
Result: -28
